# EXPERIMENTAL SYSTEM: E. coli topoisomerase IV (Escherichia coli, UniProt P0AFI2+P20083)
# Sequence (P20083 whole entry): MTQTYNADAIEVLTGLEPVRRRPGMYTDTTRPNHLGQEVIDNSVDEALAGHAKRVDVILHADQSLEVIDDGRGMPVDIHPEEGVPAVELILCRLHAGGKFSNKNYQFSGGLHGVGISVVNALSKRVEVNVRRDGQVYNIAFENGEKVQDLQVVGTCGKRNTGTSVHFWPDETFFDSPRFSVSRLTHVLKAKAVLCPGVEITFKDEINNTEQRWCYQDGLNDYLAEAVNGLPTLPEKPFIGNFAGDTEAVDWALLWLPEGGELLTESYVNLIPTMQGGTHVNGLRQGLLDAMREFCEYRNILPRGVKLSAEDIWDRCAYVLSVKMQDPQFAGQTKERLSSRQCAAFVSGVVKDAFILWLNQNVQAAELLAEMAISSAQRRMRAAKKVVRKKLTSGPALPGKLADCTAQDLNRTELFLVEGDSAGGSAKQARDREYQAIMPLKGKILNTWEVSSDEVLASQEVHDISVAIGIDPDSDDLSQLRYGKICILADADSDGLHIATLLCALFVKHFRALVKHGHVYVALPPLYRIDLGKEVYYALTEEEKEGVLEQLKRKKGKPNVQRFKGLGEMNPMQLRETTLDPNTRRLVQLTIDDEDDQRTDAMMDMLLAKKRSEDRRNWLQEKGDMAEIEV
# Sequence (P0AFI2 whole entry): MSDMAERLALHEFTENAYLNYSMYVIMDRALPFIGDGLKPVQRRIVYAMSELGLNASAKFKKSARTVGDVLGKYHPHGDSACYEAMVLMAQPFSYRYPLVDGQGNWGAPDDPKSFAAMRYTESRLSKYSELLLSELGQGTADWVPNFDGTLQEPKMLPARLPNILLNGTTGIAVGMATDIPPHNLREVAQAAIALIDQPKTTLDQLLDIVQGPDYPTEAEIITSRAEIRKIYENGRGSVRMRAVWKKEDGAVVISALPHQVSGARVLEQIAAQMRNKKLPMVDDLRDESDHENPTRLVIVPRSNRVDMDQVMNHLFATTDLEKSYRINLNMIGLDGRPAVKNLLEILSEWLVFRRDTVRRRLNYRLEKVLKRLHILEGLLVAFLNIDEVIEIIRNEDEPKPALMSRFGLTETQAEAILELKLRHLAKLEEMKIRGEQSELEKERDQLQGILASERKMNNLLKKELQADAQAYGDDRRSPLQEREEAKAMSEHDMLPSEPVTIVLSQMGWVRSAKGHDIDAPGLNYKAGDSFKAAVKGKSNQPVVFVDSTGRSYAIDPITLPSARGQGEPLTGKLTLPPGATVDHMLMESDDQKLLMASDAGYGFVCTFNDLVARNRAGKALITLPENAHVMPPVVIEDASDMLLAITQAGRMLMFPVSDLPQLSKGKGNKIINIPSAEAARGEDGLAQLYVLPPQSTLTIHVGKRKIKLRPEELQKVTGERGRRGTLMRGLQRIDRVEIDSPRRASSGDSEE
# ASSAY COMMENT: biochemical
# Format: biochemical
QUANTITY MEASURED: IC50 (µM)

LINE NOTATION	NUMBER
Cl.NC[C@H](NC(=O)c1cccc(-c2cccc([N+](=O)[O-])c2)c1)c1ccccc1	94
CCOc1cc(-c2cccc(C(=O)N[C@@H](CN)c3ccccc3)c2)ccc1F.Cl	64

###

# EXPERIMENTAL SYSTEM: E. coli DNA gyrase (Escherichia coli, UniProt P0AES4+P0AES6)
# Sequence (P0AES4 whole entry, one chain of several): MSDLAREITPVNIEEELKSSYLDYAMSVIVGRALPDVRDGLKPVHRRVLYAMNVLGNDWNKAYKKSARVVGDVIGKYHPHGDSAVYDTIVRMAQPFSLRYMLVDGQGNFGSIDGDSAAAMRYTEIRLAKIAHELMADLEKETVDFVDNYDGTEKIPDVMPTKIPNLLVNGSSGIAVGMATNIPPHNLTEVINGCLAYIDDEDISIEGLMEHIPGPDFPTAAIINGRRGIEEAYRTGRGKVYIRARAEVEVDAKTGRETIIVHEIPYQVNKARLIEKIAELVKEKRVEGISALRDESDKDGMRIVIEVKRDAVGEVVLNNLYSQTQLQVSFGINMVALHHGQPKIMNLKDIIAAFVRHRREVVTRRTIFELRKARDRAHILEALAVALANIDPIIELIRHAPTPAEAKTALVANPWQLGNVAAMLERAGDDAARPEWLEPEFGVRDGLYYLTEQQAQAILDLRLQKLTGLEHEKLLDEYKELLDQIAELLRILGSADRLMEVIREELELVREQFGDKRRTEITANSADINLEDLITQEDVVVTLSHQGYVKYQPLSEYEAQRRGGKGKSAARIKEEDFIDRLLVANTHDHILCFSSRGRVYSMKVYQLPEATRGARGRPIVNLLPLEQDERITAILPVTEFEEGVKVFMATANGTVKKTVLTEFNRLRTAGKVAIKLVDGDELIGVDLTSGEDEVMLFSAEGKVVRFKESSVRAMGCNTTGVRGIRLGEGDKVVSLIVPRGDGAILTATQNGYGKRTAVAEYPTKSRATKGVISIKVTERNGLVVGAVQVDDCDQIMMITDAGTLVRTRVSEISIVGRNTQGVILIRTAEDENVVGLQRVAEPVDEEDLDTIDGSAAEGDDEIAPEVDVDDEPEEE
# ASSAY COMMENT: E. coli DNA gyrase supercoiling inhibition assay (gel-based)
# STUDY CONDITIONS: supercoiling assay, mean of 2 or 3 experiments, semi-quantitative

MOLECULE	IC50, µM
CCOc1cccc(-c2cccc(C(=O)N[C@H](CN)c3ccccc3)c2)c1.Cl [Compound 30]	180
CCOc1cccc(-c2cccc(C(=O)N[C@@H](CN)c3ccccc3)c2)c1 [Compound 4]	20
Cl.NC[C@H](NC(=O)c1cccc(-c2ccccc2Cl)c1)c1ccccc1 [Compound 9]	35
CCOc1cccc(-c2cccc(C(=O)N[C@@H](CN)c3ccccc3)c2)c1F.Cl [Compound 6]	12
COC(=O)c1cccc(-c2cccc(C(=O)N[C@@H](CN)c3ccccc3)c2)c1.Cl [Compound 13]	24
CCOc1cccc(-c2cccc(C(=O)NC(CN)c3cccc(O)c3)c2)c1F (centres unmarked) [Compound 34]	62
COc1ccccc1-c1cccc(C(=O)NC(CN)c2cccc(O)c2)c1.Cl (centres unmarked) [Compound 31]	41
NC[C@H](NC(=O)c1cccc(-c2ccccc2)c1)c1ccccc1 [Compound 2]	60

###

Measured pIC50 of individual entries
# EXPERIMENTAL SYSTEM: E. coli DNA gyrase (Escherichia coli, UniProt P0AES4+P0AES6)
# ASSAY COMMENT: E. coli DNA gyrase supercoiling inhibition assay (gel-based)
# STUDY CONDITIONS: supercoiling assay, mean of 2 or 3 experiments, semi-quantitative
pIC50: −log10 of the molar value.
QUANTITY MEASURED: pIC50

COMPOUND	QUANTITY MEASURED	NUMBER
COc1ccccc1-c1cc(C(=O)N[C@@H](CN)c2ccccc2)ccc1C	pIC50	3.82
Cl.NC[C@H](NC(=O)c1cccc(-c2cccc([N+](=O)[O-])c2)c1)c1ccccc1	pIC50	4.14
NC[C@H](NC(=O)c1cncc(-c2ccccc2Cl)c1)c1ccccc1	pIC50	4.46
CCOc1cc(-c2cccc(C(=O)N[C@@H](CN)c3ccccc3)c2)ccc1F.Cl	pIC50	4.77
CC(=O)c1cccc(-c2cccc(C(=O)N[C@@H](CN)c3ccccc3)c2)c1.Cl	pIC50	4.38
CCOc1cc(C)cc(-c2cc(C(=O)N[C@@H](CN)c3ccccc3)ccc2C)c1	pIC50	4.25
NC[C@H](NC(=O)c1cccc(-c2cccc(O)c2)c1)c1ccccc1	pIC50	4.34
COc1ccccc1-c1cccc(C(=O)NC(CN)c2ccc(O)cc2)c1 (stereo not drawn)	pIC50	4.35
COc1ccccc1-c1cccc(C(=O)N[C@@H](CN)c2ccccc2)c1	pIC50	4.70
CCOc1cccc(-c2cc(C(=O)N[C@@H](CN)c3ccccc3)ccc2C)c1	pIC50	4.20
Cl.NC[C@H](NC(=O)c1cccc(-c2ccccc2C(F)(F)F)c1)c1ccccc1	pIC50	4.68
COC(=O)c1ccccc1-c1cccc(C(=O)N[C@@H](CN)c2ccccc2)c1.Cl	pIC50	4.39
COc1ccccc1-c1cccc(C(=O)N[C@H](CN)c2ccccc2)c1	pIC50	4.44
CCOc1cccc(-c2cccc(C(=O)NC(CN)c3cccc(O)c3)c2)c1 (stereo not drawn)	pIC50	4.39
Cl.NC[C@@H](NC(=O)c1cccc(-c2ccccc2)c1)c1ccccc1	pIC50	4.12
NC[C@H](NC(=O)c1cccc(-c2cccc(Cl)c2)c1)c1ccccc1	pIC50	4.41

###

# melting point listing for each entry below
QUANTITY MEASURED: melting point

Cl.NC[C@@H](NC(=O)c1cccc(-c2ccccc2)c1)c1ccccc1 205 to 207 °C
COC(=O)c1ccccc1-c1cccc(C(=O)N[C@@H](CN)c2ccccc2)c1.Cl 145 to 147 °C
Cl.NC[C@H](NC(=O)c1cccc(-c2ccccc2Cl)c1)c1ccccc1 160.5 to 163 °C
CC(=O)c1cccc(-c2cccc(C(=O)N[C@@H](CN)c3ccccc3)c2)c1.Cl ~ 238 °C (dec.)
CCOc1cc(-c2cccc(C(=O)N[C@@H](CN)c3ccccc3)c2)ccc1F.Cl 219 to 221 °C
COC(=O)c1cccc(-c2cccc(C(=O)N[C@@H](CN)c3ccccc3)c2)c1.Cl 212 to 215 °C

###

Catalogue of compounds with associated IC50
# EXPERIMENTAL SYSTEM: E. coli topoisomerase IV (Escherichia coli, UniProt P0AFI2+P20083)
# ASSAY COMMENT: biochemical
# Assay type: biochemical

COMPOUND	IC50
COc1ccccc1-c1cccc(C(=O)NC(CN)c2cccc(O)c2)c1.Cl (stereo not drawn)	> 100 µM
Cl.NC[C@H](NC(=O)c1cccc(-c2ccccc2C(F)(F)F)c1)c1ccccc1	> 100 µM
CCOc1cccc(-c2cccc(C(=O)N[C@@H](CN)c3ccccc3)c2)c1F.Cl	> 100 µM

###

Recorded pIC50, one value per entry.
# EXPERIMENTAL SYSTEM: E. coli DNA gyrase (Escherichia coli, UniProt P0AES4+P0AES6)
# ASSAY COMMENT: E. coli DNA gyrase supercoiling inhibition assay (gel-based)
# STUDY CONDITIONS: supercoiling assay, mean of 2 or 3 experiments, semi-quantitative
pIC50: −log10 of the molar value.
QUANTITY MEASURED: pIC50

MOLECULE	RESULT
CCOc1cccc(-c2cccc(C(=O)NC(CN)c3ccc(O)cc3)c2)c1F (stereo not drawn) [Compound 35]	< 3.70
Cc1cccc(C(=O)N[C@@H](CN)c2ccccc2)c1 [Compound 22]	< 4.00
Cl.NC[C@H](NC(=O)c1cccc(Br)c1)c1ccccc1 [Compound 15]	< 3.70
